compounds and their reported Ki
# TARGET OR TEST SYSTEM: 5-HT1A receptors (Rattus norvegicus)
# Construct: Hippocampal tissue from the brains of male Charles River CD rats; from tissue; host or cells: rat hippocampus membrane homogenate
# Sequence (P19327 whole entry): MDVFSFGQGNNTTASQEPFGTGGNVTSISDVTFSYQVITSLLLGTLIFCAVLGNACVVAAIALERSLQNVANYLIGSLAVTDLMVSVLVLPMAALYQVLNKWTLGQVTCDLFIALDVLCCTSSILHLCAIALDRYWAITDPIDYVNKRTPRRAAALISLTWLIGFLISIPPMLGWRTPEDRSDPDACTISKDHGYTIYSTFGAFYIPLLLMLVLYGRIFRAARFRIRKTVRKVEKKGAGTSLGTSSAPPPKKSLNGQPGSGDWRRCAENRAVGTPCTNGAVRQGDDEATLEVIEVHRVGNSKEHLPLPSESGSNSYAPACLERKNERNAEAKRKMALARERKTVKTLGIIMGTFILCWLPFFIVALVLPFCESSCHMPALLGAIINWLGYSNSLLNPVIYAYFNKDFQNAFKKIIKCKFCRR
# ASSAY NOTES: Inhibition of [3H]8-OH-DPAT binding to 5-HT1A receptors in rat hippocampal tissue
# CONDITION CONTEXT: ligand [3H]8-OH-DPAT 2 nM, 25° C., 30 minutes
REPORTED PROPERTY: Ki (nM)

1. COc1ccccc1N1CCC(CNC[C@H]2COc3ccc4scc(Cl)c4c3O2)CC1
36
2. COc1ccccc1N1CCC(CNC[C@H]2COc3ccc4[nH]ncc4c3O2)CC1
1.2
3. COc1ccccc1N1CCC(CNC[C@H]2COc3ccc4occc4c3O2)CC1 [Example 6, monofumarate monohydrate]
1.7
4. COc1ccccc1N1CCC(CNC[C@H]2COc3ccc4sccc4c3O2)CC1.O=C(O)/C=C/C(=O)O [Example 2, monofumarate]
9.7
5. Oc1ccccc1N1CCC(CNC[C@H]2COc3ccc4occc4c3O2)CC1
3.6
6. COc1ccccc1N1CCC(CNC[C@H]2COc3ccc4c(c3O2)OCO4)CC1 [Example 8, monocitrate]
1.1

###

compounds and their reported melting point
Where a name gives a salt, the structure may show the parent alone.
REPORTED PROPERTY: melting point

1. Oc1ccccc1N1CCC(CNC[C@H]2COc3ccc4occc4c3O2)CC1 (as salt: fumarate) (hydrate or solvate) [Example 7]
88 to 89 °C
2. COc1ccccc1N1CCC(CNC[C@H]2COc3ccc4occc4c3O2)CC1.O.O=C(O)/C=C/C(=O)O (hydrate or solvate) [Example 6]
95 to 96 °C
3. COc1ccccc1N1CCC(CNC[C@H]2COc3ccc4[nH]ccc4c3O2)CC1 (hydrate or solvate) [Example 4]
162 to 163 °C
4. COc1ccccc1N1CCC(CNC[C@H]2COc3ccc4sccc4c3O2)CC1.O=C(O)/C=C/C(=O)O [Example 2]
180 to 182 °C
5. COc1ccccc1N1CCC(CNC[C@H]2COc3ccc4scc(Cl)c4c3O2)CC1 (as salt: fumarate) [Example 1]
171 to 172 °C

###

# TARGET OR TEST SYSTEM: D2-like dopamine receptors (Rattus norvegicus, UniProt P61169)
# Sequence (P61169 whole entry): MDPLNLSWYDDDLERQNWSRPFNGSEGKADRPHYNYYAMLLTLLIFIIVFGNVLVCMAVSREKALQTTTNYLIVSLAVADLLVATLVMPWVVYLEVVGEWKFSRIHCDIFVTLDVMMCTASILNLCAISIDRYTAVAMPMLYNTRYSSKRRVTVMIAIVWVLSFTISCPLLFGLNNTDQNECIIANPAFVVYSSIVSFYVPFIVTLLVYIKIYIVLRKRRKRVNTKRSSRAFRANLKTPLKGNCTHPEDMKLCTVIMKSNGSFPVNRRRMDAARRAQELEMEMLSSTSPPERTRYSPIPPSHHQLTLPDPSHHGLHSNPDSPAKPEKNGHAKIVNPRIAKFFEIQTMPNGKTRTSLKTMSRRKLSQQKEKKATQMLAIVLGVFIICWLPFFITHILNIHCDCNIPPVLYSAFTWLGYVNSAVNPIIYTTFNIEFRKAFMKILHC
# ASSAY NOTES: Inhibition of tritiated (S)-sulpiride binding to D2-like dopamine receptors in rat striatal tissue
# CONDITION CONTEXT: ligand tritiated (S)-sulpiride 1 nM, 4° C., 40 minutes
REPORTED PROPERTY: Ki (nM)

1. CCOC(=O)c1cc2c3c(ccc2[nH]1)OC[C@H](CNCC1CCN(c2ccccc2OC)CC1)O3 [Example 3]
106
